Test system: soybean
Assay: Test B pre/postemergence soybean
Type: in vivo, Glycine max
Conditions: Preemergence, Rate 62 g/ha; scale of 0 to 10 where 0 is no effect and 10 is complete control

{"columns": ["COMPOUND", "Plant response rating, Soybean"],
 "data": [
  ["CC(C)N(C(=O)n1oc(=O)n(CC#N)c1=O)c1ccc(Cl)cc1 [Compound 476]", 0],
  ["CC(C)N(C(=O)n1oc(=O)n(Cc2cnc(Cl)s2)c1=O)c1ccc(F)cc1 [Compound 482]", 0],
  ["COC(C)n1c(=O)on(C(=O)N(c2ccc(F)cc2)C(C)C)c1=O (stereo not shown) [Compound 439]", 0],
  ["C=C(Cn1c(=O)on(C(=O)N(c2ccccc2)C(C)C)c1=O)c1cccnc1 [Compound 498]", 0]
]}

====

Test system: cocklebur
Experiment: Test B pre/postemergence cocklebur
Type: in vivo, Xanthium strumarium
Conditions: Postemergence, Rate 62 g/ha; scale 0 to 10, 0 is no effect, 10 is complete control
EXPERIMENTAL_READOUT: Plant response rating, Cocklebur

{"columns": ["COMPOUND", "EXPERIMENTAL_READOUT", "OBSERVED"],
 "data": [
  ["CCCCCn1c(=O)on(C(=O)N(c2ccc(F)cc2F)C(C)C)c1=O", "Plant response rating, Cocklebur", 0],
  ["CCOC(=O)CC(C(=O)OCC)n1c(=O)on(C(=O)N(c2ccccc2)C(C)C)c1=O (centres unmarked)", "Plant response rating, Cocklebur", 0],
  ["CC[C@@H](C)n1c(=O)on(C(=O)N(c2ccc(F)cc2F)C(C)C)c1=O", "Plant response rating, Cocklebur", 2],
  ["CCOP(=O)(OCC)C(C)n1c(=O)on(C(=O)N(c2ccc(F)cc2F)C(C)C)c1=O (centres unmarked)", "Plant response rating, Cocklebur", 0],
  ["CC(=O)NCn1c(=O)on(C(=O)N(c2ccccc2)C(C)C)c1=O", "Plant response rating, Cocklebur", 0]
]}

====

Test system: crabgrass
Test: Test B pre/postemergence crabgrass
Format: in vivo, Digitaria sanguinalis
Conditions: Rate 62 g/ha, Postemergence; scale of 0 to 10 where 0 is no effect and 10 is complete control
Cut-off 1 on Crabgrass plant response rating, inclusive. At or above means 1.0; below means 0.0.

{"columns": ["COMPOUND", "TEST_SYSTEM", "CAT"],
 "data": [
  ["CC(C)N(C(=O)n1oc(=O)[nH]c1=O)c1ccc(F)cc1F [Compound 391]", "crabgrass", 0.0],
  ["CC(C)N(C(=O)n1oc(=O)n(CCCl)c1=O)c1ccc(F)cc1 [Compound 148]", "crabgrass", 1.0],
  ["Cc1ccccc1-n1c(=O)on(C(=O)N(c2ccc(-c3ccccc3)cc2)C(C)C)c1=O [Compound 187]", "crabgrass", 0.0],
  ["CCC(CC)n1c(=O)on(C(=O)N(c2ccc(F)cc2F)C(C)C)c1=O [Compound 353]", "crabgrass", 0.0],
  ["CCOC(=O)Cn1c(=O)on(C(=O)N(c2ccc(F)cc2)C(C)C)c1=O [Compound 128]", "crabgrass", 0.0],
  ["Cc1ccccc1-n1c(=O)on(C(=O)N(c2ccc(S(C)(=O)=O)cc2)C(C)C)c1=O [Compound 203]", "crabgrass", 0.0],
  ["CCn1c(=O)on(C(=O)N(c2ccc(F)cc2)C(C)C)c1=O [Compound 107]", "crabgrass", 1.0],
  ["CC(C)N(C(=O)n1oc(=O)n(CCC#N)c1=O)c1ccc(F)cc1F [Compound 433]", "crabgrass", 1.0],
  ["COCCOCn1c(=O)on(C(=O)N(c2ccc(F)cc2)C(C)C)c1=O [Compound 220]", "crabgrass", 1.0]
]}

====

Tested on: blackgrass
Assay: Test B pre/postemergence blackgrass
Assay type: in vivo, Alopecurus myosuroides
Conditions: Preemergence, Rate 500 g/ha; scale 0 to 10 (0 no effect, 10 complete control)
Blackgrass plant response rating by entry:

{"columns": ["COMPOUND_SMILES", "Blackgrass plant response rating"],
 "data": [
  ["CC(C)N(C(=O)n1oc(=O)n([C@H](C)c2ccccc2)c1=O)c1ccc(Cl)cc1", 3],
  ["CCn1c(=O)on(C(=O)N(c2ccc(F)cc2F)C(C)C)c1=O", 10],
  ["CC(C)N(C(=O)n1oc(=O)n(-c2cnn(C)c2Cl)c1=O)c1ccccc1", 3],
  ["Cc1ccccc1-n1c(=O)on(C(=O)N(c2ccc(-c3ccccc3)cc2)C(C)C)c1=O", 0]
]}

====

Overview of reported Wheat plant response rating (0 to 10 scale) across a group of compounds:
Test system: wheat
Assay: Test B pre/postemergence wheat
Type: in vivo, Triticum aestivum
Settings: Preemergence, Rate 125 g/ha; 0 is no effect, 10 is complete control
EXPERIMENTAL_READOUT: Wheat plant response rating (0 to 10 scale)

{"columns": ["COMPOUND", "OBSERVED"],
 "data": [
  ["Cc1ccccc1Cn1c(=O)on(C(=O)N(c2ccc(Cl)cc2)C(C)C)c1=O [Compound 136]", 0],
  ["CC(C)N(C(=O)n1oc(=O)n(CCCl)c1=O)c1ccc(F)cc1 [Compound 148]", 3],
  ["Cc1nn(C)c(Cl)c1-n1c(=O)on(C(=O)N(c2ccc(F)cc2)C(C)C)c1=O [Compound 95]", 0],
  ["CCOC(=O)Cn1c(=O)on(C(=O)N(c2ccc(F)cc2)C(C)C)c1=O [Compound 128]", 0]
]}

====

System: corn
Assay: Test B pre/postemergence corn
Assay type: in vivo, Zea mays
Conditions: Preemergence, Rate 500 g/ha; scale of 0 to 10 where 0 is no effect and 10 is complete control
Reported Corn plant response rating values are given for each entry in this list.

{"columns": ["COMPOUND", "Corn plant response rating"],
 "data": [
  ["CC(C)=CCn1c(=O)on(C(=O)N(c2ccccc2)C(C)C)c1=O", 0],
  ["CC(C)N(C(=O)n1oc(=O)n(CC2CCCC2)c1=O)c1ccc(F)cc1", 0],
  ["COCC(C)n1c(=O)on(C(=O)N(c2ccc(F)cc2F)C(C)C)c1=O (centres unmarked)", 9],
  ["CC(C)N(C(=O)n1oc(=O)n(C(C)Cl)c1=O)c1ccc(F)cc1 (centres unmarked)", 0],
  ["CC(C)N(C(=O)n1oc(=O)n(C2CCCCCC2)c1=O)c1ccccc1", 0]
]}

====

Collected Plant response rating, Wheat values appear next to each entry.
Test system: wheat
Assay: Test B pre/postemergence wheat
Type: in vivo, Triticum aestivum
Settings: Preemergence, Rate 62 g/ha; scale of 0 to 10 where 0 is no effect and 10 is complete control

{"columns": ["COMPOUND", "Plant response rating, Wheat"],
 "data": [
  ["C=C(Cn1c(=O)on(C(=O)N(c2ccccc2)C(C)C)c1=O)c1cccnc1", 0],
  ["CC(C)N(C(=O)n1oc(=O)n(C(C)C#N)c1=O)c1ccc(Cl)cc1 (centres unmarked)", 0],
  ["Cc1nc(C)c(C(C)n2c(=O)on(C(=O)N(c3ccc(F)cc3F)C(C)C)c2=O)s1 (centres unmarked)", 0],
  ["CC(C)N(C(=O)n1oc(=O)n(CC[N+](=O)[O-])c1=O)c1ccc(Cl)cc1", 0],
  ["CC(C)N(C(=O)n1oc(=O)n(C(C)CCl)c1=O)c1ccc(Cl)cc1 (centres unmarked)", 0]
]}

====

Tested on: crabgrass
Test: Test B pre/postemergence crabgrass
Assay type: in vivo, Digitaria sanguinalis
Settings: Postemergence, Rate 250 g/ha; scale 0 to 10, 0 no effect, 10 complete control
Catalogue of compounds with associated Crabgrass plant response rating

{"columns": ["COMPOUND_SMILES", "Crabgrass plant response rating"],
 "data": [
  ["Cc1ccccc1-n1c(=O)on(C(=O)N(c2ccc(F)cc2F)C(C)C)c1=O", 9],
  ["CCN(C(=O)n1oc(=O)n(Cc2cccs2)c1=O)C1CCCCC1", 0],
  ["CCn1c(=O)on(C(=O)N(c2ccc(F)cc2)C(C)C)c1=O", 9],
  ["CC(C)N(C(=O)n1oc(=O)n(-c2cnn(C)c2)c1=O)c1ccc(F)cc1", 2]
]}

====

Tested on: rape
Assay: Test B pre/postemergence rape
Format: in vivo, Brassica napus
Conditions: Preemergence, Rate 62 g/ha; scale of 0 to 10 where 0 is no effect and 10 is complete control
Recorded Rape plant response rating, one value per entry.

{"columns": ["MOLECULE", "TEST_SYSTEM", "Rape plant response rating"],
 "data": [
  ["COC(CCl)n1c(=O)on(C(=O)N(c2ccccc2)C(C)C)c1=O (stereo not drawn)", "rape", 1],
  ["CC(C)N(C(=O)n1oc(=O)n(C(C)C2CC2)c1=O)c1ccc(F)cc1F (stereo not drawn)", "rape", 6],
  ["Cc1ccccc1-n1c(=O)on(C(=O)N(c2cccc(F)c2)C(C)C)c1=O", "rape", 0]
]}
